Hello, the source for this data is ChEMBL document CHEMBL1201862, in case you need it.

system: HT-29; assay: NCI tumour cell line growth inhibition, 48 h
Activity calls are given as the source filed them. Rule as the data show it: active = GI50 up to about 1.1 µM and inactive = higher.
Classes used: active, inactive

{"columns": ["MOLECULE", "SYSTEM NAME", "DISCRETE LABEL"],
 "data": [
  ["CC1(C)N=C(N)N=C(N)N1c1cccc(C(=O)Nc2ccc(S(=O)(=O)F)cc2)c1", "HT-29", "inactive"],
  ["C(=N\\CCCN1CCN(CCC/N=C/c2cccc3ccccc23)CC1)/c1cccc2ccccc12", "HT-29", "inactive"],
  ["COc1cc(C2SCC(=O)N2c2ccc(Cl)cc2)cc(I)c1O (stereo not drawn)", "HT-29", "inactive"],
  ["CCOC(=O)n1[nH]c(=O)n(-c2ccccc2)c1=O", "HT-29", "inactive"],
  ["CN(C)C(=S)NC(=S)Nc1ccc2ccccc2c1", "HT-29", "inactive"],
  ["CC1C(=O)O[C@H]2C1CC[C@@]1(C)[C@H](O)CC[C@@]13C[C@]2(O)OO3 (stereo partly drawn)", "HT-29", "inactive"],
  ["CN1Nc2ccccc2CC1=O", "HT-29", "inactive"],
  ["O=C(N/N=C/c1ccccc1O)N/N=C/c1ccccc1O", "HT-29", "inactive"],
  ["COc1ccc(OC)c2c(C)ccnc12", "HT-29", "inactive"],
  ["CC(=O)NC1C(OCc2ccccc2)OC(CO)C(O)C1OCC(=O)NC(C)C(=O)NC(CCC(=O)NCCCCNc1ccc([N+](=O)[O-])c2[nH]c3ccccc3c(=O)c12)C(N)=O (stereo not drawn)", "HT-29", "inactive"],
  ["CN1CC2CC(C1)c1cccc(=O)n1C2 (stereo not drawn)", "HT-29", "inactive"],
  ["COC(=O)CCC(=O)C(CC(=O)OC)C(=O)CCC(=O)NCCc1ccccc1 (stereo not drawn)", "HT-29", "inactive"],
  ["CN1C(=O)CC2(C)c3cc(C=O)ccc3N(C)C12 (stereo not drawn)", "HT-29", "inactive"],
  ["CSc1c(C#N)c(O)nc(N)c1C(=O)Nc1ccc(Cl)cc1", "HT-29", "inactive"],
  ["NC(=O)Cc1ncn(-c2ccccc2)n1", "HT-29", "inactive"],
  ["Nc1ccc(-c2nc3ccccc3s2)cc1I", "HT-29", "inactive"],
  ["Cc1ccc(-c2cc(=O)c3cc(C)c(C)c(C(=O)O)c3o2)cc1C", "HT-29", "inactive"],
  ["CC(=O)OCC1OC(n2cnc3nc(Br)[nH]c(=O)c32)C(OC(C)=O)C1OC(C)=O (stereo not drawn)", "HT-29", "inactive"],
  ["O=C1CNCCCN2CCN(CCCNCC(=O)Nc3ccc(cc3)S(=O)(=O)c3ccc(cc3)NC(=O)CNCCCN3CCN(CCCNCC(=O)Nc4ccc(cc4)S(=O)(=O)c4ccc(cc4)N1)CC3)CC2", "HT-29", "inactive"],
  ["COc1ccc(-c2coc3c4c(ccc3c2=O)OCO4)cc1OC", "HT-29", "inactive"],
  ["CC1(C)OC(COP2OCCO2)[C@H](COP2OCCO2)O1 (stereo partly drawn)", "HT-29", "inactive"],
  ["COC(=O)C1=C(OC(=O)/C(=C/c2ccc(Cl)cc2)c2ccccc2)C(C(=O)OC)[C@@]2(O)[C@@H](C(=O)OC)[C@H](C)C[C@@H]1[C@@H]2C(=O)OC (stereo partly drawn)", "HT-29", "inactive"],
  ["COc1cc(/C=C/C(=O)OCCc2ccccc2)ccc1O", "HT-29", "inactive"],
  ["N#CCCN(C1=NN(C(=O)CC(=O)Nc2ccc(Cl)cc2)C(c2ccccc2)C1)c1ccc(Cl)cc1 (stereo not drawn)", "HT-29", "inactive"],
  ["COC(=O)C[C@](O)(CCC(C)(C)O)C(=O)O[C@@H]1C(OC)=C[C@]23CCCN2CCc2cc4c(cc2[C@H]13)OCO4", "HT-29", "active"],
  ["COc1cc(S(=O)(=O)Nc2nc(-c3ccc(N4C(=O)C(CC(=O)O)SC4c4cccs4)cc3)cs2)ccc1Cl (stereo not drawn)", "HT-29", "inactive"],
  ["CCCCCCCCCCCc1nnc(N)o1", "HT-29", "inactive"],
  ["O=C(O)c1ccc2c(c1)C(=O)N(c1ccc(S(=O)(=O)c3ccc(N4C(=O)c5ccc(C(=O)O)cc5C4=O)cc3)cc1)C2=O", "HT-29", "inactive"],
  ["O=C(/C(=C\\I)c1ccccc1)c1ccccc1", "HT-29", "inactive"],
  ["Cc1cc(N(CCC#N)CCC#N)ccc1/C=C(\\NC(=O)/C=C/c1ccccc1)C(=O)Nc1ccc(Cl)cc1", "HT-29", "inactive"],
  ["CCSCCC(N)C(=O)O (stereo not drawn)", "HT-29", "inactive"],
  ["CC(=O)N1N=C(c2c(O)ccc3ccccc23)CC1c1ccc(Cl)cc1 (stereo not drawn)", "HT-29", "inactive"],
  ["C#CCOCCCC(=O)O", "HT-29", "inactive"],
  ["COC(=O)[C@]1(C)C(OC)=CC(=O)C2C1[C@H]1CCC[C@@H]21 (stereo partly drawn)", "HT-29", "inactive"],
  ["CCCCc1c2c(nc3c1CCCC3O)/C(=C/c1ccccc1)CCC2 (stereo not drawn)", "HT-29", "inactive"],
  ["O=C1Cc2nc(CO)c(CO)c(CO)c2CO1", "HT-29", "inactive"],
  ["CNc1ccccc1S(=O)(=O)c1ccccc1[N+](=O)[O-]", "HT-29", "inactive"],
  ["Cc1nc(C(N)=S)sc1C(=O)C/C(=N/N)C(=O)Nc1ccc(Cl)cc1", "HT-29", "inactive"]
]}
